Attribute: melting point

CCN(CCCCC12CC3CC(CC(C3)C1)C2)C(=O)NCCCc1ccncc1	92.7 to 93.7 °C
CCN(C(C)=O)c1cccc(-c2ccc3nncn3n2)c1	122 to 127 °C

Name the recorded melting point of the molecule listed here: CC(=O)NC[C@H]1CN(c2ccc(N3CCC(n4nnc(N5CCN(Cc6ccccc6)CC5)n4)CC3)c(F)c2)C(=O)O1 202 to 204 °C

Give the reported value of melting point for this record: CCOC(=O)c1cc2c3ccccc3n(Cc3ccccc3)c2nc1N1CCOCC1 151 to 152 °C

Supply reported melting point belonging to this molecule: CCOc1ccc(CC(=O)Cc2csc(-c3ccc(OC)c(OC)c3)n2)cc1OCC 141 to 142 °C

Report melting point for CCN1CCCc2cc(C(=O)c3ccc4c(c3)CCCN4CC)ccc21 120 °C

Answer with the recorded melting point of Cc1cccc(NS(=O)(=O)c2ccc(N3CCNC3=O)cc2)c1C only. 231 to 232 °C

Give melting point for the following molecule: CC(C)NCC(O)COc1cc(-c2ccccc2)nc2ccccc12 (racemic) 109 to 111 °C

Item Cc1nc(NC(=O)NC(=O)c2c(Cl)cccc2Cl)cnc1-c1ccc(Br)cc1 : provide melting point 225 to 227 °C

Query melting point for Cc1ccc2[nH]cc(C(=O)[C@H]3CCCN3)c2c1 194 to 196 °C

For CCOc1cc(-c2cc(C(F)(F)F)nc(-c3ccnc(-c4ccc(S(N)(=O)=O)s4)c3)n2)ccc1C(F)(F)F , write its melting point. 238 °C

Identify measured melting point associated with CCOC(=O)CCCCC(=O)c1c(C)n(C(=O)OC)c(=O)n1C(=O)OC 74 to 76 °C

Supply measured melting point of OC1CSC(Oc2ccc(-c3cccnc3)nc2Cl)C(O)C1O (stereo not given) in your reply. 180 °C

Consider the molecule CC(C)(C)CC(C)(C)NC(=O)CCON(Cc1ccccc1)Cc1ccccc1 and give its recorded melting point. 96 to 98 °C

Identify measured melting point associated with COC(=O)c1[nH]c(C)c(C)c1OCCCCCl 74 to 76 °C

Supply recorded melting point for CCOCn1c(Cl)c(Cl)c(C#N)c1-c1ccc(Cl)c(Cl)c1 here. 128 to 130 °C

Dear colleague, please send me the reported melting point for Cc1ccc(Cl)c(Nc2ccccc2-c2nsc(=O)o2)c1Cl when you can. 135 to 137 °C

Write down melting point measured for item NC(=O)c1ccc(-c2ccc(O)cc2)cc1Cl 215 to 216 °C

Return melting point (reported value) for this molecule: O=C(O)CCc1cccc(NC(=O)NCC(=O)N2[C@@H](c3ccccc3)CC[C@H]2c2ccccc2)c1 170 °C

Give recorded melting point. Cc1c(C)c2c(c(C)c1NC(=O)N1CCCC1)C(c1ccc(C(C)C)cc1)CO2 (stereo not given) 186 to 188 °C
